Literature-derived Ki for D(2) dopamine receptor (Rattus norvegicus) follows.
Field: class. Source value: Ki. Ranges: bucket A (below 50 nM), bucket B (50 nM to below 700 nM), bucket C (700 nM or more)

{"COMPOUND": "CCCN(CCN1CCN(C(=O)c2cc3ccccc3[nH]2)CC1)[C@H]1CCc2nc(N)sc2C1", "GROUP": "bucket C"}
{"COMPOUND": "CCCN(CCN1CCN(c2ccccc2)CC1)C1CCc2ccc(NC(C)=O)cc2C1 (stereo not drawn)", "GROUP": "bucket C"}
{"COMPOUND": "CCCN(CCN1CCN(c2ccc(-c3cccc(O)c3)cc2)CC1)C1CCc2nc(N)ncc2C1 (racemic)", "GROUP": "bucket C"}
{"COMPOUND": "O=C(NCCCN1CCN(c2cccc(Cl)c2Cl)CC1)c1cccc2c1-c1ccccc1C2", "GROUP": "bucket B"}
{"COMPOUND": "CN1CCc2ccc(OCCCCN3CCC(c4noc5cc(F)ccc45)CC3)cc2C1=O", "GROUP": "bucket A"}
{"COMPOUND": "CCCN(CCN1CCN(c2ccccc2)CC1)C1CCc2cc3[nH]cnc3cc2C1 (stereo not drawn)", "GROUP": "bucket C"}
{"COMPOUND": "CN1CCc2cc(Cl)c(O)cc2[C@H]1c1ccccc1", "GROUP": "bucket C"}
{"COMPOUND": "Cc1cc(=O)oc2cc(OCCCCN3CCC(c4nc5ccccc5s4)CC3)ccc12", "GROUP": "bucket B"}
{"COMPOUND": "CCCN(CCN1CCN(Cc2c[nH]c3cccc(F)c23)CC1)C1CCc2nc(N)sc2C1 (racemic)", "GROUP": "bucket C"}
{"COMPOUND": "Cc1cc(=O)oc2cc(OCC(O)CN3CCC(c4noc5cc(F)ccc45)CC3)ccc12 (stereo not drawn)", "GROUP": "bucket C"}
{"COMPOUND": "CCCN(CCN1CCN(C(=O)c2ccc3[nH]ccc3c2)CC1)C1CCc2nc(N)sc2C1 (racemic)", "GROUP": "bucket C"}
{"COMPOUND": "O=C1CCc2cc(CCCN3CCC(c4noc5cc(F)ccc45)CC3)cc3c2N1CC3", "GROUP": "bucket A"}
{"COMPOUND": "CN(CC[C@@H](Oc1ccc(C(F)(F)F)cc1)c1ccccc1)CC(=O)[O-].[Li+]", "GROUP": "bucket C"}
{"COMPOUND": "CCCN(CCN(CCC)[C@H]1CCc2c(O)cccc2C1)[C@H]1CCc2c(O)cccc2C1", "GROUP": "bucket A"}
{"COMPOUND": "COc1cc2c(cc1OC)CN(Cc1ccc(-c3cc(Br)cc(OC)c3OC)[nH]1)CC2", "GROUP": "bucket A"}
{"COMPOUND": "CCCN(CCN1CCN(c2ccc(-c3cccc(O)c3)cc2)CC1)[C@H]1CCc2c(O)cccc2C1", "GROUP": "bucket A"}
{"COMPOUND": "CCCN(CCCCCc1ccc(O)c(O)c1)[C@H]1CCc2c(O)cccc2C1", "GROUP": "bucket A"}
{"COMPOUND": "Cc1cc(=O)oc2cc(OC/C=C/CN3CCC(c4noc5cc(F)ccc45)CC3)ccc12", "GROUP": "bucket A"}
{"COMPOUND": "O=C(NCCCCN1CCN(c2cccc(Cl)c2Cl)CC1)c1ccc(-c2ccccn2)cc1", "GROUP": "bucket B"}
{"COMPOUND": "CCCN(CCN1CCN(Cc2c[nH]c3cccc(OC)c23)CC1)C1CCc2nc(N)sc2C1 (racemic)", "GROUP": "bucket C"}
{"COMPOUND": "CCCN(CCN1CCN(C(=O)c2ccc3[nH]ccc3c2)CC1)C1CCc2ccc(O)cc2C1 (stereo not drawn)", "GROUP": "bucket B"}
{"COMPOUND": "O=C(CCCN1CCN(c2cccc(Cl)c2Cl)CC1)c1cc2c3c(c1)CCC(=O)N3CCC2", "GROUP": "bucket B"}
{"COMPOUND": "CC1CC(=O)N2CCCc3cc(C(=O)CCCN4CCC(c5noc6cc(F)ccc56)CC4)cc1c32 (stereo not drawn)", "GROUP": "bucket B"}
{"COMPOUND": "CCCN(CCCCCCCCCCCCCCN(CCC)[C@H]1CCc2c(O)cccc2C1)[C@H]1CCc2c(O)cccc2C1", "GROUP": "bucket B"}
{"COMPOUND": "CN1CCN2c3c(cccc31)[C@@H]1CN(CCCC(=O)c3ccccc3)CC[C@@H]12", "GROUP": "bucket A"}
{"COMPOUND": "O=C(CCN1CCC(c2noc3cc(F)ccc23)CC1)c1cc2c3c(c1)CCN3C(=O)CC2", "GROUP": "bucket A"}
{"COMPOUND": "CC1CCc2ccc(OCCCCN3CCC(c4nsc5ccccc45)CC3)cc2C1=O (stereo not drawn)", "GROUP": "bucket C"}
{"COMPOUND": "CN1CCc2ccc(OCCCCN3CCN(c4cccc(C(F)(F)F)c4)CC3)cc2C1=O", "GROUP": "bucket B"}
{"COMPOUND": "Cc1ccc(S(=O)(=O)N2CCN(CCCCOc3ccc4c(C)cc(=O)oc4c3)CC2)cc1", "GROUP": "bucket C"}
{"COMPOUND": "O=c1cc(C(F)(F)F)c2ccc(OCCCCN3CCC(c4noc5cc(F)ccc45)CC3)cc2o1", "GROUP": "bucket C"}
{"COMPOUND": "Oc1ccc2c(c1)C[C@H]1[C@@H](CCCN1CCN1CCN(c3ccccc3)CC1)C2 (racemic)", "GROUP": "bucket C"}
{"COMPOUND": "CN1CCN2c3c(cccc31)[C@@H]1CN(CCc3cc4c(cc3Cl)NC(=O)C4)CC[C@@H]12", "GROUP": "bucket C"}
{"COMPOUND": "CCCN(CCN1CCN(c2ccc(-c3cccc(O)c3)cc2)CC1)[C@H]1CCc2nc(N)sc2C1", "GROUP": "bucket B"}
{"COMPOUND": "CCCN(CCN1CCN(Cc2ccc3[nH]ccc3c2)CC1)C1CCc2nc(N)sc2C1 (stereo not drawn)", "GROUP": "bucket B"}
{"COMPOUND": "O=C1CCc2cc(C(O)CCN3CCC(c4noc5cc(F)ccc45)CC3)cc3c2N1CCC3 (stereo not drawn)", "GROUP": "bucket A"}
